- System: gene editing with dCas9
- PROTOCOL: Screen of 322 new SSAP proteins, gene editing activity with dCas9 (Table 5)
- Format: cell-based
- RUN_CONDITIONS: normalized

MOLECULE: SSAP_113: SEQ ID NO: 282; Acinetobacter sp. RIT592 (protein, listed as Acinetobacter sp.) ADLKNKLANKAAGTVTKTSPNAGMKQLMKSMSKEIEAALPSHMSSERFQRVALTAFGNNPKLMNCDPMSFIAAMMDSAQLGLEPNTPLGQAYLIPYGTKVQFQVGYKGLLELALRSGKIKTLYAHEVRENDTFEVKYGLHQDLIHEPVLKGNRGEVIGYYAVYHLDTGGHSFVFMTKDEVLEHAKGKSKTFNNGPWQTDFDAMAKKTVIKQLLKYAPLSIEMQKAVSSDETVKSKIDEDMSLVVDESDSIEANFEIKEDEDGQLDVYVK
dCas9 with SSAP activity (normalized): −3.818
//
MOLECULE: SSAP_64: SEQ ID NO: 233 (protein) SELQQAAQGQQSNNPVSFIYSHAKDIQNVLTKGTDMDRWLQMARLAVMRDQNLVASAKRDPGSLMQALLDCAEKGHVPGTEDYYLVPRKGGIQGMESWKGIAKRIMRSGRYQSIVNEVVYEGETFEFNPNTMDRPVHNINYMTRTSGKPVMSYAYALDHDGKPSSVAIADPRYIAKVKKNSRGSVWEDWDEQMYRKTAVKMLQDYVDTSSVDRRDVSTVQVDDANVIDVDDTFTAREAGE
dCas9 with SSAP activity (normalized): −1.023

All figures here come from patent US20250034594A1.
